ASSAY_REMARKS: Body weight change, chronic exposure in normal rats
Assay type: in vivo, rats (Sprague-Dawley)
STATED_CONDITIONS: normal Sprague-Dawley rats; 1 mg/kg/day continuous infusion, subcutaneous osmotic pump; one week
Method: Methods: Normal rats (Sprague-Dawley) were maintained on a standard diet. Compounds 7, 17, 6, TRIAC or T3 were administered by continuous infusion using an osmotic pump (Alzet; subcutaneous implant) at a dose of 1 mg/kg/day. The compounds were dissolved in 0.1N NaOH solution and the pH adjusted to 7.4-8.0. […] Body weights were measured and the change from the starting body weight was calculated. […]
EXPERIMENTAL_READOUT: Body Weight (% change from start)

[[record]]
smiles_input = "O=P(O)(O)Cc1cc(I)c(Oc2ccc(O)c(I)c2)c(I)c1"
experimental_readout = "Body Weight (% change from start)"
recorded_number = 8.7

[[record]]
smiles_input = "Cc1cc(OCC(=O)O)cc(C)c1Cc1ccc(O)c(C(C)C)c1"
experimental_readout = "Body Weight (% change from start)"
recorded_number = "−5.4"

[[record]]
smiles_input = "O=C(O)Cc1cc(I)c(Oc2ccc(O)c(I)c2)c(I)c1"
experimental_readout = "Body Weight (% change from start)"
recorded_number = "−1.7"

[[record]]
smiles_input = "Cc1cc(OCP(=O)(O)O)cc(C)c1Cc1ccc(O)c(C(C)C)c1"
experimental_readout = "Body Weight (% change from start)"
recorded_number = 9.1

